System: Setaria viridis (SETVI)
PROCEDURE DETAILS: Herbicidal post-emergence action (D), 320 g/ha
Type: in vivo
CONDITION: ca. 3 weeks
VALUE TYPE: herbicidal effect SETVI
// return the numeric value with its unit appended

In the examples that follow, each entry is paired with its recorded herbicidal effect SETVI.
Fc1ccc(-c2nc3ncsc3cc2Cl)c(F)c1 [Example I-127]    90%
CCCc1cc2scnc2nc1-c1ccccc1F [Example I-185]    90%
Cc1cc2scnc2nc1-c1ccccc1Cl [Example I-045]    80%
CCc1cc2scnc2nc1-c1ccccc1F [Example I-023]    80%
Cc1cc2scnc2nc1-c1ccccc1 [Example I-041]    90%
Fc1ccccc1-c1ccc2scnc2n1 [Example I-036]    80%
Fc1ccccc1-c1nc2ncsc2cc1I [Example I-188]    100%
Clc1cc2scnc2nc1-c1ccsc1Cl [Example I-190]    80%
Fc1ccccc1-c1nc2ncsc2cc1Cl [Example I-017]    80%
Clc1cc2scnc2nc1-c1sccc1Cl [Example I-189]    90%

List herbicidal effect SETVI for every entry below, keeping the order given.
1. Cc1cc2scnc2nc1-c1ccsc1C [Example I-194]
2. Cc1ccsc1-c1nc2ncsc2cc1Cl [Example I-192]
3. Cc1cc2scnc2nc1-c1sccc1C [Example I-143]
4. CC(C)c1cc2scnc2nc1-c1ccccc1F [Example I-184]
5. Cc1cc2scnc2nc1-c1cccc(F)c1 [Example I-003]
6. Fc1ccccc1-c1nc2ncsc2cc1Br [Example I-012]

Reply:
1. 80%
2. 80%
3. 80%
4. 90%
5. 80%
6. 90%

---

Test system: Amaranthus retroflexus (AMARE)
PROCEDURE DETAILS: Herbicidal post-emergence action (B), 1280 g/ha
Type: in vivo
CONDITION: rated visually after about 3 weeks vs untreated controls
VALUE TYPE: herbicidal activity AMARE (%)
One number for each entry, in %.

In the examples that follow, each entry is paired with its recorded herbicidal activity AMARE.
Cc1cccc(F)c1-c1nc2ncsc2cc1Br    100
Cc1nc2nc(-c3ccc(F)cc3)c(C)cc2s1    100
Cc1cc2scnc2nc1-c1sccc1C    100
Clc1cc2scnc2nc1-c1sccc1Cl    90

List herbicidal activity AMARE for every entry below, keeping the order given.
1. Cc1cc2sc(Cc3ccccc3F)nc2nc1-c1ccccc1
2. Cc1cc2scnc2nc1-c1ccccc1
3. CCc1cc2sc([S+](C)[O-])nc2nc1-c1ccccc1C (centres unmarked)

Reply:
100
100
100

List herbicidal activity AMARE for every entry below, keeping the order given.
1. Cc1ncsc1-c1nc2nc(S)sc2cc1Br
2. N#Cc1nc2nc(-c3ccccc3F)c(Br)cc2s1
3. CC(C)c1cc2scnc2nc1-c1ccccc1F
4. Cc1cc2scnc2nc1-c1ccc(F)cc1F

Reply:
90
100
100
100

---

Tested on: Kochia scoparia (KCHSC; Bassia scoparia)
PROCEDURE DETAILS: Herbicidal post-emergence action (B), 1280 g/ha
Type: in vivo
VALUE TYPE: herbicidal effect KCHSC (%)
Answers are plain numbers, in %.

List herbicidal effect KCHSC for every entry below, keeping the order given.
1. COc1ccccc1-c1nc2nc(SC)sc2cc1C
2. Cc1ccsc1-c1nc2ncsc2cc1Br
3. CCc1cc2sc([S+](C)[O-])nc2nc1-c1ccccc1C (stereo not shown)
4. CCc1cc2scnc2nc1-c1ccccc1OC
5. CCc1cc2sc(S(C)(=O)=O)nc2nc1-c1ccccc1C

Reply:
90
90
90
100
90

List herbicidal effect KCHSC for every entry below, keeping the order given.
1. CCOC(=O)C(C#N)c1nc2nc(-c3ccccc3F)c(Br)cc2s1 (stereo not shown)
2. CCc1cc2scnc2nc1-c1cccc(F)c1
3. Clc1cc2scnc2nc1-c1sccc1Cl
4. Cc1cccc(F)c1-c1nc2ncsc2cc1Br
5. Cc1cc2scnc2nc1-c1ccccc1C(F)(F)F

Reply:
1: 90; 2: 100; 3: 90; 4: 100; 5: 100
